The origin of these recorded values is patent US12180207B2.

biological target: HEK-293 cells transfected with dox-inducible human wild type FGFR3 (Homo sapiens (Human)); assay: FGFR3 pFGFR cell assay (ELISA); type: cell-based; conditions: HEK-293 dox-inducible FGFR3, 1 hour compound, 100 ng/ml FGF-acidic
pIC50: −log10 of the molar value.
property: pIC50

Observe how each entry below is paired with its result.
C=CC(=O)N1CC(C(=O)N2CCC(n3cc(-c4cc(C(C)C)c5c(C#N)cnn5c4)cn3)CC2)C1 | 7.64
C=CC(=O)N1CC(C(=O)N2CCC(n3cc(-c4cc(OCC)c5c(C#N)cnn5c4)cn3)CC2)C1 | 7.70

(a) C=CC(=O)N1CCC(C(=O)N2CCC(n3ncc(-c4cc(OC)c5c(C#N)cnn5c4)c3C)CC2)CC1
(b) C=CC(=O)N1CCC(C#N)(C(=O)N2CCC(n3cc(-c4cc(OC)c5c(C#N)cnn5c4)cn3)CC2)CC1
(c) C=CC(=O)N1CC[C@H](C(=O)N2CC(n3cc(-c4cc(OC)c5c(C#N)cnn5c4)cn3)C2)C1
(d) COc1cc(-c2cnn(C3CCN(C(=O)C4CN(C(=O)/C=C/CN5CCCCC5)C4)CC3)c2)cn2ncc(C#N)c12
(e) C=CC(=O)N1CC(F)(C(=O)N2CCC(n3cc(-c4cc(OC)c5c(C#N)cnn5c4)cn3)CC2)C1
Write the entries in order, lowest recorded pIC50 first. Kindly provide the labels arranged according to the requested ordering.
c, a, d, b, e

====

target: HEK-293 cells transfected with dox-inducible human wild type FGFR1 (Homo sapiens (Human)); assay: FGFR1 pERK cell assay; format: cell-based; details: HEK-293 dox-inducible FGFR1, 1 hour compound, 100 ng/ml FGF-acidic; maximum concentration 5 μM
Sequence (P11362 22-822): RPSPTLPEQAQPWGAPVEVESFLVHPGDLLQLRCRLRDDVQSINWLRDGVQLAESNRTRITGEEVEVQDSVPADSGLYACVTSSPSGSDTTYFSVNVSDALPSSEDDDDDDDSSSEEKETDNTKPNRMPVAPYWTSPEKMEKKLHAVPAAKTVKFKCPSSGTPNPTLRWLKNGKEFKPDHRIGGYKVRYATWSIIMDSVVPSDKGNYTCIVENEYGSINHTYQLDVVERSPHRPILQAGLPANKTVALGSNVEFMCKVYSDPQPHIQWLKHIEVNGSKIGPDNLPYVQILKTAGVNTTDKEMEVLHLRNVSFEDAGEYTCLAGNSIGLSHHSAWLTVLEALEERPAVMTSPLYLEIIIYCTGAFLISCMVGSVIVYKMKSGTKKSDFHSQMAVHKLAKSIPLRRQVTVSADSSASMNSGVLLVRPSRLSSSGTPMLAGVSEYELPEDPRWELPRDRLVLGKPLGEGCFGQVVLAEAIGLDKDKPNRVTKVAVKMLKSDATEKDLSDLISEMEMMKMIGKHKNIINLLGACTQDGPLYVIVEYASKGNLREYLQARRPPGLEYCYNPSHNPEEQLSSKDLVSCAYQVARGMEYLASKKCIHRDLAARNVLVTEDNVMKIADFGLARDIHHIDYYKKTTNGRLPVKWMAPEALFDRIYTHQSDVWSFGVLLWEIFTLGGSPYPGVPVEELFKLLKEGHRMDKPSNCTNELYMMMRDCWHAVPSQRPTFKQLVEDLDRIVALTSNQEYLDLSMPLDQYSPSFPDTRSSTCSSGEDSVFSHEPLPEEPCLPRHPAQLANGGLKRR
pIC50: −log10 of the molar value.
property: pIC50

C=CC(=O)N1CC(F)(C(=O)N2CCC(n3ncc(-c4cc(OC)c5c(C#N)cnn5c4)c3C)CC2)C1 | 6.34

(A) C=CC(=O)Nc1ccc(C(=O)N2CC[C@@H](n3cc(-c4cc(OC)c5c(C#N)cnn5c4)cn3)C2)cc1
(B) C=CC(=O)N1CC(C(=O)N2CCN(c3ccc(-c4cc(OC)c5c(C#N)cnn5c4)cc3)CC2)C1
Which item exceeds the other in pIC50, A or B ? Mark your selection by writing its label.
B

====

molecular target: recombinant human FGFR2 cytoplasmic domain (amino acids 403-822) (Homo sapiens (Human), UniProt P21802); test: FGFR2 enzyme activity assay (LanthaScreen TR-FRET); details: 15 μM ATP, 20 min incubation at 22° C., average of multiple determinations if made, read-out: FGFR2 Enz FRET IC50
Sequence (P21802 402-821): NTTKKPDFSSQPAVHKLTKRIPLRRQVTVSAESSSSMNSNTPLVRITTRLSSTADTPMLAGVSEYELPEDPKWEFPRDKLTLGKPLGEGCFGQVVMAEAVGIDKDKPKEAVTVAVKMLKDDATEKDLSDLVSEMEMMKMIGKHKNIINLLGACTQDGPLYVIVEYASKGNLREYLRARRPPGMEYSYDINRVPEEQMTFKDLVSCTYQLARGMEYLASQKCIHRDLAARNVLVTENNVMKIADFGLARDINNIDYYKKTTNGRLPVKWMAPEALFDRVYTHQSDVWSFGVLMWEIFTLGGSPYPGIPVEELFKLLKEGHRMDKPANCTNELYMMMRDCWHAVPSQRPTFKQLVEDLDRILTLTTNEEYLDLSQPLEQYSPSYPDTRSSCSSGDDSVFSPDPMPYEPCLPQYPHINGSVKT
property: IC50 (nM)

Example compounds with recorded IC50:
CCc1c(-c2cc(OC)c3c(C#N)cnn3c2)cnn1C1CCN(C(=O)C2(F)CN(C(=O)/C=C/CN(C)C)C2)CC1 | 69
C=CS(=O)(=O)N[C@@H]1CC[C@H](C(=O)N2CCC(n3cc(-c4cc(OC)c5c(C#N)cnn5c4)cn3)CC2)C1 | 5

(I) COc1cc(-c2cnn(C3CCN(C(=O)C4(F)CN(C(=O)/C=C/C(F)(F)F)C4)CC3)c2C)cn2ncc(C#N)c12
(II) C=CC(=O)N1CC(C(=O)N2CCC(n3cc(-c4cc(C(C)C)c5c(C#N)cnn5c4)cn3)CC2)C1
(III) C=CC(=O)N1C[C@H]2CN(C(=O)N3CCC(n4cc(-c5cc(OC)c6c(C#N)cnn6c5)cn4)CC3)C[C@H]21
(IV) C=CC(=O)N1CC(OC)(C(=O)N2CCC(n3cc(-c4cc(OC)c5c(C#N)cnn5c4)cn3)CC2)C1
Order the records by IC50, with each subsequent value no larger than the one before. In your reply, arrange the labels in the requested order.
I, II, III, IV
(I: 114 nM, II: 9 nM, III: 6 nM, IV: 1 nM)

====

Reported pIC50 values, phosphorylated FGFR3 (SEQ ID NO: 5, amino acids 449 to 759) (Homo sapiens (Human)).
pIC50: −log10 of the molar value.
property: pIC50

Below: 3 compounds and their reported pIC50.
C=CC(=O)N1CC(C(=O)N2CCC(c3ccc(-c4cc(OC)c5c(C#N)cnn5c4)cc3)CC2)C1 | 8.52
C=CC(=O)N1CC(C(=O)N2CCC(n3cc(-c4cc(OC)c5c(C#N)cnn5c4)cn3)CC2)C1C (stereo not shown) | 8.52
C=CC(=O)N[C@H]1CC[C@@H](C(=O)N2CCC(n3cc(-c4cc(OC)c5c(C#N)cnn5c4)cn3)CC2)CC1 | 7.74

(1) C=CC(=O)N1CC[C@@H](C(=O)N2CCC(n3cc(-c4cc(OC)c5c(C#N)cnn5c4)cn3)CC2)C1
(2) C=CC(=O)Nc1ccc(C(=O)N2CC[C@H](n3cc(-c4cc(OC)c5c(C#N)cnn5c4)cn3)C2)c(OC)c1
(3) C=CC(=O)N1CC2(CC(C(=O)N3CCC(n4cc(-c5cc(OC)c6c(C#N)cnn6c5)cn4)CC3)C2)C1
(4) C=CC(=O)N1CC(OC)(C(=O)N2CCC(n3ncc(-c4cc(OC)c5c(C#N)cnn5c4)c3C)CC2)C1
Please give the order of these compounds when sorted by pIC50, largest value leading. // format: requested-order list of labels
4, 2, 3, 1

====

biological target: FGFR3 (SEQ ID NO: 5, amino acids 449-759) (Homo sapiens (Human)); assay: LC/MS FGFR3 kobs assay (covalent protein modification); format: binding; conditions: 500 nM FGFR3, 3 μM compound
Sequence (P22607 449-759): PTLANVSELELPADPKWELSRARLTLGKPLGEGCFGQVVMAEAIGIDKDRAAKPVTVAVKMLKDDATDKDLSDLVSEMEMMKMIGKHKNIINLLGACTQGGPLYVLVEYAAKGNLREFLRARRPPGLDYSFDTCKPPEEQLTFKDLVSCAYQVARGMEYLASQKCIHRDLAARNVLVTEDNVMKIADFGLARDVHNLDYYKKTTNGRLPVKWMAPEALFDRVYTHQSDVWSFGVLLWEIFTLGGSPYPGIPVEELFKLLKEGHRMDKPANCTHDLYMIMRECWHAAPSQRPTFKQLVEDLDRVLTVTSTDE
property: FGFR3 Enz kobs (min⁻¹)

C=CC(=O)N1CC(CN2CCC(n3ncc(-c4cc(OC)c5c(Cl)cnn5c4)c3C)CC2)C1 | 0.02502
C=CC(=O)N1CC(OC)(C(=O)N2CCC(n3cc(-c4cc(OC)c5c(Cl)cnn5c4)cn3)CC2)C1 | 0.02484
C=CC(=O)N(C)c1ccc(CN2CCC(n3cc(-c4cc(OC)c5c(C#N)cnn5c4)cn3)CC2)cc1 | 0.01566
C=CC(=O)Nc1ccc(C(=O)N2CCC(n3cc(-c4cc(OC)c5c(C#N)cnn5c4)cn3)CC2)cc1 | 0.01958

====

target: HEK-293 cells transfected with dox-inducible human wild type FGFR3 (Homo sapiens (Human), UniProt P22607); experiment: FGFR3 pERK cell assay; format: cell-based; conditions: HEK-293 dox-inducible FGFR3, 1 hour compound, 100 ng/ml FGF-acidic; maximum concentration 5 μM
Sequence (P22607 23-806): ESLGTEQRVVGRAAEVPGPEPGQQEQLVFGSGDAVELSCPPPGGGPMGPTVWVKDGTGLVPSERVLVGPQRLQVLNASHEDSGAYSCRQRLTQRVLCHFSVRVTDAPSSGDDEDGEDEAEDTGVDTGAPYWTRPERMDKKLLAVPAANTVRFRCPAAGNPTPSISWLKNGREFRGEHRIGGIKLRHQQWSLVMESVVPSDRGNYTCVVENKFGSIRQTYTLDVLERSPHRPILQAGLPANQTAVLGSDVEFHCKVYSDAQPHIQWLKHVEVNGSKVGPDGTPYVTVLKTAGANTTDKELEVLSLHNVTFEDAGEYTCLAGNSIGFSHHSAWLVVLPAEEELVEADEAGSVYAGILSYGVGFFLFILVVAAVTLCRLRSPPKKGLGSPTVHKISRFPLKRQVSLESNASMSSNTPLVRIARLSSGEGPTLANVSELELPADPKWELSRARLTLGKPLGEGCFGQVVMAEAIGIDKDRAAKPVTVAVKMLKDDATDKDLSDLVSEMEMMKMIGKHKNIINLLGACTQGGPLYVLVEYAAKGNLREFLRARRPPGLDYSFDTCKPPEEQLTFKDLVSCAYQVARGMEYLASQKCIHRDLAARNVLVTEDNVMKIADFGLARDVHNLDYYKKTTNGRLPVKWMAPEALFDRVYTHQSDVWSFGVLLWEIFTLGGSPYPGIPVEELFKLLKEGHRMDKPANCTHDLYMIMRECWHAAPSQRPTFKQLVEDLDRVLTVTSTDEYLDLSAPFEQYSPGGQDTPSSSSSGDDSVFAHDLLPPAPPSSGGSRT
pIC50: −log10 of the molar value.
property: pIC50

C=CC(=O)N1CC(C(=O)N2CCN(c3cnc(-c4cc(OC)c5c(C#N)cnn5c4)cn3)CC2)C1 | 6.79
C=CC(=O)N1CC(F)(C(=O)N2CCC(n3cc(-c4cc(OC)c5c(Cl)cnn5c4)cn3)CC2)C1 | 7.60
COc1cc(-c2cnn(C3CCN(C(=O)C4(F)CN(C(=O)/C=C/C(F)(F)F)C4)CC3)c2C)cn2ncc(C#N)c12 | 7.51
C=CC(=O)N1CCN(C(=O)N2CCC(n3cc(-c4cc(OC)c5c(C#N)cnn5c4)cn3)CC2)C[C@@H]1CC#N | 7.40
C=CC(=O)N1CC(C(=O)N2CCC(n3ncc(-c4cc(OC)c5c(C#N)cnn5c4)c3C)CC2)C1 | 6.97

(a) COc1cc(-c2cnn(C3CCN(C(=O)C4CN(C(=O)/C=C/CN5CC[C@@H](F)C5)C4)CC3)c2)cn2ncc(C#N)c12
(b) C=CC(=O)N1CC(C(=O)N2CCN(c3ccc(-c4cc(OC)c5c(C#N)cnn5c4)nn3)CC2)C1
(c) COc1cc(-c2cnn(C3CCN(C(=O)C4CN(C(=O)/C=C/CN5CCOCC5)C4)CC3)c2)cn2ncc(C#N)c12
Ascending sort, pIC50. The labels, placed in the requested order, form the answer.
c, b, a

====

target: HEK-293 cells transfected with dox-inducible human wild type FGFR1 (Homo sapiens (Human)); test: FGFR1 pERK cell assay; assay type: cell-based; conditions: HEK-293 dox-inducible FGFR1, 1 hour compound, 100 ng/ml FGF-acidic; maximum concentration 5 μM
pIC50: −log10 of the molar value.
property: pIC50

As a guide, the following entries are already answered.
COc1cc(-c2c(C)nn(C3CCN(C(=O)C4(F)CN(C(=O)/C=C/CN(C)C)C4)CC3)c2C)cn2ncc(C#N)c12 [Example 161] | 5.79
C=CC(=O)N1CC(OC)(C(=O)N2CCC(n3nc(C)c(-c4cc(OC)c5c(C#N)cnn5c4)c3C)CC2)C1 [Example 95] | 5.97
C=CC(=O)N1CC(C(=O)N2CCC3(C2)CN(c2ccc(-c4cc(OC)c5c(C#N)cnn5c4)cn2)C3)C1 [Example 103] | 6.24
C=C(F)C(=O)N1CC(C(=O)N2CCC(n3cc(-c4cc(OC)c5c(C#N)cnn5c4)cn3)CC2)C1 [Example 140] | 6.69
C=CC(=O)N1CC(F)(C(=O)N2CCC(n3cc(-c4cc(OC)c5c(C#N)cnn5c4)cn3)CC2)C1 [Example 37] | 7.23

(I) COc1cc(-c2cnn(C3CCN(CC4CN(C(=O)/C=C/CN(C)C)C4)CC3)c2)cn2ncc(C#N)c12 [Example 146]
(II) C=CC(=O)N1CC(C(=O)N2C[C@@H]3C[C@H]2CN3c2ccc(-c3cc(OC)c4c(C#N)cnn4c3)cn2)C1 [Example 106]
Param metric = pIC50; output whichever of I , II has the minimum value. Lab note: record the label of whichever item you select.
II

(P) C=CC(=O)N1CC(C(=O)N2CCN(c3ncc(-c4cc(OC)c5c(C#N)cnn5c4)cc3C)CC2)C1 [Example 113]
(Q) C=CC(=O)N1CC(OC)(C(=O)N2CCC(n3ncc(-c4cc(OC)c5c(C#N)cnn5c4)c3C)CC2)C1 [Example 88]
(R) CC#CC(=O)N1CC(F)(C(=O)N2CCC(n3ncc(-c4cc(OC)c5c(C#N)cnn5c4)c3C)CC2)C1 [Example 156]
rank_up(items): orders items by reported pIC50 in ascending numerical order. # answer = labels listed in requested order
R, P, Q
(R: 5.51, P: 5.80, Q: 6.22)
